- Tested on: Candida albicans
- run-description: Antifungal activity against Candida albicans ATCC 76615 after 48 hrs by M27-A3 CLSI method
- Type: functional
- measurement-parameters: ATCC 76615, 48 h
Recorded MIC for the following compounds

O=C(COc1ccccc1)OC(Cn1ccnc1)c1ccc(F)cc1 (racemic) : > 64 µg/mL
OC(Cn1ccnc1)c1ccc(Cl)cc1 (racemic) : > 64 µg/mL
OC(Cn1ccnc1)c1ccccc1 (racemic) : > 64 µg/mL
CC(C)c1ccc(NC(=O)OC(Cn2ccnc2)c2ccc(F)cc2)cc1 (racemic) : ≥ 64 µg/mL
O=C(OC(Cn1ccnc1)c1ccccc1)c1ccc(-c2ccccc2)cc1 (racemic) : 4 µg/mL
O=C(OC(Cn1ccnc1)c1ccccc1)c1ccc(C(F)(F)F)cc1 (racemic) : ≥ 64 µg/mL

In: For the compound shown here, O=C(COc1ccccc1)OC(Cn1ccnc1)c1ccc(Cl)cc1 (racemic) , give the reported MIC.
Out: > 64 µg/mL

In: GET /values?readout=MIC&item= OC(Cn1ccnc1)c1ccc(F)cc1 (racemic)
Out: > 64 µg/mL

In: Recorded MIC of O=C(OC(Cn1ccnc1)c1ccc(Cl)cc1)c1ccc(-c2ccccc2)cc1 (racemic) , please.
Out: 4 µg/mL

In: Fill blank: measured MIC of the compound Cl.O=C(OC(Cn1ccnc1)c1ccc(Cl)cc1)c1cccc(C(F)(F)F)c1 (racemic) is ____.
Out: > 64 µg/mL

In: Give the measured MIC of Cl.O=C(OC(Cn1ccnc1)c1ccc(F)cc1)c1cccc(C(F)(F)F)c1 (racemic; 4b) .
Out: ≥ 64 µg/mL

In: Endpoint output: MIC of O=C(Nc1cc(Cl)nc(Cl)c1)OC(Cn1ccnc1)c1ccc(Cl)cc1 (racemic) . Value?
Out: > 64 µg/mL

---

- Tested on: Candida tropicalis
- run-description: Antifungal activity against Candida tropicalis DSM 11953 after 48 hrs by M27-A3 CLSI method
- Type: functional
- measurement-parameters: DSM 11953, 48 h
log10 MIC values, listed per item
# values: log10(MIC), units µg/mL

Below: 3 compounds and their reported log10 MIC.
O=C(OC(Cn1ccnc1)c1ccc(F)cc1)c1ccc(-c2ccccc2)cc1 (racemic) : 0.00
OC(Cn1cncn1)(Cn1cncn1)c1ccc(F)cc1F : 0.00
Cl.O=C(OC(Cn1ccnc1)c1ccc(F)cc1)c1cccc(C(F)(F)F)c1 (racemic; 4b) : 1.51

In: Query (compound): O=C(OC(Cn1ccnc1)c1ccccc1)c1ccc(C(F)(F)F)cc1 (racemic) ; field requested: log10 MIC
Out: 1.20

In: Query: log10 MIC; subject: OC(Cn1ccnc1)c1ccccc1 (racemic)
Out: 1.81

In: Item under review: O=C(OC(Cn1ccnc1)c1ccc(Cl)cc1)c1ccc(-c2ccccc2)cc1 (racemic) . Reported log10 MIC?
Out: -0.90

---

- Tested on: Pichia kudriavzevii
- run-description: Antifungal activity against Candida krusei after 48 hrs by M27-A3 CLSI method
- Assay type: functional
property-label: MIC (µg/mL)
Provide only the numeric value, understood in µg/mL.

Examples with their reported MIC follow.
O=C(OC(Cn1ccnc1)c1ccc(F)cc1)c1ccc(-c2ccccc2)cc1 (racemic) : 2.25
O=C(OC(Cn1ccnc1)c1ccccc1)c1ccc(-c2ccccc2)cc1 (racemic) : 4.7
O=C(OC(Cn1ccnc1)c1ccc(Cl)cc1)c1ccc(-c2ccccc2)cc1 (racemic) : 3.7

In: Param item = OC(Cn1cncn1)(Cn1cncn1)c1ccc(F)cc1F ; retrieve measured MIC.
Out: 26

---

- Test system: Candida tropicalis
- run-description: Antifungal activity against Candida tropicalis DSM11953 after 48 hrs by M27-A3 CLSI method
property-label: MIC
Field note: include the unit after the figure.

// worked examples, MIC included
O=C(OC(Cn1ccnc1)c1ccccc1)c1ccc(-c2ccccc2)cc1 (racemic) : 0.58 µg/mL
O=C(OC(Cn1ccnc1)c1ccc(F)cc1)c1ccc(-c2ccccc2)cc1 (single isomer, unassigned; (-)) : 0.27 µg/mL
O=C(OC(Cn1ccnc1)c1ccccc1)c1ccc(-c2ccccc2)cc1 (single isomer, unassigned; (+)) : 26.67 µg/mL
O=C(OC(Cn1ccnc1)c1ccccc1)c1ccc(-c2ccccc2)cc1 (single isomer, unassigned; (-)) : 0.15 µg/mL
O=C(OC(Cn1ccnc1)c1ccc(F)cc1)c1ccc(-c2ccccc2)cc1 (racemic) : 2.17 µg/mL

// next item, MIC requested
In: Record O=C(OC(Cn1ccnc1)c1ccc(F)cc1)c1ccc(-c2ccccc2)cc1 (single isomer, unassigned; (+)) : what is its MIC with Candida tropicalis?
Out: 32 µg/mL

---

molecules and their reported MIC
- Tested on: Candida albicans
- run-description: Antifungal activity against Candida albicans ATCC 10231 after 48 hrs by M27-A3 CLSI method
- Type: functional
- measurement-parameters: ATCC 10231, 48 h
Give the value, in units of µg/mL, as a plain number.

Check out these entries, answers already filled in.
O=C(OC(Cn1ccnc1)c1ccc(F)cc1)c1ccc(-c2ccccc2)cc1 (racemic) : 8
O=C(COc1ccccc1)OC(Cn1ccnc1)c1ccc(F)cc1 (racemic) : 8

In: Fill in the blank: the reported MIC of O=C(OC(Cn1ccnc1)c1ccccc1)c1ccc(C(F)(F)F)cc1 (racemic) is ____.
Out: 8

---

Parameter: MIC. Scope: all listed entries.
- Test system: Candida albicans
- run-description: Antifungal activity against Candida albicans ATCC 76615 after 48 hrs by M27-A3 CLSI method
- Format: functional
- measurement-parameters: ATCC 76615, 48 h

CC(C)c1ccc(NC(=O)OC(Cn2ccnc2)c2ccc(Cl)cc2)cc1 (racemic) : > 64 µg/mL
O=C(OC(Cn1ccnc1)c1ccc(C(F)(F)F)cc1)c1cccc(C(F)(F)F)c1 (racemic) : ≥ 64 µg/mL
CC(C)c1ccc(NC(=O)OC(Cn2ccnc2)c2ccccc2)cc1 (racemic) : ≥ 64 µg/mL
O=C(OC(Cn1ccnc1)c1ccc(F)cc1)c1ccc(-c2ccccc2)cc1 (racemic) : 4 µg/mL
OC(Cn1cncn1)(Cn1cncn1)c1ccc(F)cc1F : 0.25 µg/mL

In: Look up MIC with Candida albicans for this compound: O=C(OC(Cn1ccnc1)c1ccccc1)c1cccc(C(F)(F)F)c1 (racemic)
Out: ≥ 64 µg/mL

In: Give the reported MIC for O=C(OC(Cn1ccnc1)c1ccc(F)cc1)c1cccc(C(F)(F)F)c1 (racemic; 3b) (system: Candida albicans).
Out: > 64 µg/mL

src = ChEMBL document CHEMBL1944618
